Here, each record is paired with measured Activity data.
Tested on: von Hippel-Lindau disease tumor suppressor/Epidermal growth factor receptor (Homo sapiens), P00533+P40337 [L858R,T790M]
Assay: Protac activity at VHL/EGFR L858R/T790M mutant in human NCI-H1975 cells assessed as induction of EGFR degradation at 1000 nM incubated for 24 hrs by Western blot analysis relative to control
Type: cell-based

COc1cc(N(C)CCN(C)C)c(NC(=O)/C=C/CN(C)CCCCCCCCCC(=O)N[C@H](C(=O)N2C[C@H](O)C[C@H]2C(=O)NCc2ccc(-c3scnc3C)cc2)C(C)(C)C)cc1Nc1nccc(-c2cn(C)c3ccccc23)n1	< 20%

Then there is this compound:
QUERY: What does the record list as Activity for `COc1cc(N(C)CCN(C)C)c(NC(=O)/C=C/CN(C)CCCCCCCC(=O)N[C@H](C(=O)N2C[C@H](O)C[C@H]2C(=O)NCc2ccc(-c3scnc3C)cc2)C(C)(C)C)cc1Nc1nccc(-c2cn(C)c3ccccc23)n1` ?
RESULT: < 20%

====

Biological target: von Hippel-Lindau disease tumor suppressor/Epidermal growth factor receptor (Homo sapiens, UniProt P00533+P40337, L858R)
Experiment: Protac activity at VHL/EGFR L858R mutant (unknown origin) assessed as inhibition of EGFR incubated for 40 mins in presence of ATP by Kinase Glo luminescence assay
Known IC50 of a selection of compounds
A number alone suffices; assume nM.

C=CC(=O)N1CCC[C@H](n2c(Nc3ccccc3)nc3cnc(Nc4ccc(N5CCN(C)CC5)cc4)nc32)C1	21

Now, please, on to the next compound.
QUERY: Bench note: what IC50 did `C=CC(=O)N1CC[C@H](n2c(Nc3ccccc3)nc3cnc(Nc4ccc(N5CCN(C)CC5)cc4)nc32)C1` show?
RESULT: 10

====

Each item that follows carries a reported Activity.
Tested on: von Hippel-Lindau disease tumor suppressor/Epidermal growth factor receptor (Homo sapiens), P00533+P40337 [L858R,T790M]
Test: Protac activity at VHL/[…] cells assessed as induction of EGFR degradation at 100 nM incubated for 24 hrs by Western blot analysis relative to control
Type: cell-based

QUERY: GET /values?readout=Activity&item= `COc1cc(N(C)CCN(C)C)c(NC(=O)/C=C/CN(C)CCCCCCCCCC(=O)N[C@H](C(=O)N2C[C@H](O)C[C@H]2C(=O)NCc2ccc(-c3scnc3C)cc2)C(C)(C)C)cc1Nc1nccc(-c2cn(C)c3ccccc23)n1`
RESULT: < 20%

QUERY: // returns reported Activity for input `COc1cc(N(C)CCN(C)C)c(NC(=O)/C=C/CN(C)CCCCCCCC(=O)N[C@H](C(=O)N2C[C@H](O)C[C@H]2C(=O)NCc2ccc(-c3scnc3C)cc2)C(C)(C)C)cc1Nc1nccc(-c2cn(C)c3ccccc23)n1`
RESULT: < 20%

QUERY: For the compound shown here, `C=CC(=O)Nc1cc(Nc2nccc(-c3cn(C)c4ccccc34)n2)c(OC)cc1N(CCCCCCC(=O)NCCOCCOCC(=O)N[C@H](C(=O)N1C[C@H](O)C[C@H]1C(=O)NCc1ccc(-c2scnc2C)cc1)C(C)(C)C)CCN(C)C` , give the reported Activity.
RESULT: 23%

QUERY: Please look up its Activity: `COc1cc(N(C)CCN(C)C)c(NC(=O)/C(C#N)=C/C(C)(C)NC(=O)CCCCCCC(=O)N[C@H](C(=O)N2C[C@H](O)C[C@H]2C(=O)NCc2ccc(-c3scnc3C)cc2)C(C)(C)C)cc1Nc1nccc(-c2cn(C)c3ccccc23)n1`
RESULT: < 20%
